B1: library; numbered along this chain (parent)
chain: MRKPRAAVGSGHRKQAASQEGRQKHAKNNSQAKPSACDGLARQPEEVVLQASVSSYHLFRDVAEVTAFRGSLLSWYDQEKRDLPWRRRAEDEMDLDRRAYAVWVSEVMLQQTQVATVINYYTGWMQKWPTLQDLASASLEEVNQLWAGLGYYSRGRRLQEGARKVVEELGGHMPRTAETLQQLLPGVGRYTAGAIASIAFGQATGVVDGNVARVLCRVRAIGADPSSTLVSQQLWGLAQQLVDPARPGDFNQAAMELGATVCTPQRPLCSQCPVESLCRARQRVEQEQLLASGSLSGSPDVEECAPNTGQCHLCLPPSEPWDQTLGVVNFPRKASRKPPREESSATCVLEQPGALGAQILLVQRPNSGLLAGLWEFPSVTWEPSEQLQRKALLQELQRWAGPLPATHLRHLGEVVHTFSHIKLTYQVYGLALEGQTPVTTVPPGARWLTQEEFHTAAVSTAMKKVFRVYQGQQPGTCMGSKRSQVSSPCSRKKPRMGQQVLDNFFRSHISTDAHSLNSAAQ

variants of: B1; assay: 8OG:A repair function score (normalized; synonymous = 0, nonsense = -1) (normalized log-likelihood score); higher = more repair activity (WT-like); settings: with 8OG:A DNA repair reporter (GFP) in HEK-293 MUTYH KO cells;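 further: cells sorted at 72 h after reporter transfection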
READOUT_LABEL: 8OG:A repair function score
Lab note: jot the number down without any unit.

Worked examples, 2 variants total:
{"MUTATION_LABEL": "N366L", "MEAS_VALUE": -0.0714}
{"MUTATION_LABEL": "L72S", "MEAS_VALUE": -0.775}

I am curious: what 8OG:A repair function score value has been reported for E342W ?
-0.279

I am curious: what 8OG:A repair function score value has been reported for Q435V ?
-0.157

I am curious: what 8OG:A repair function score value has been reported for S459W ?
-0.631

I am curious: what 8OG:A repair function score value has been reported for L184K ?
-0.925

I am curious: what 8OG:A repair function score value has been reported for S136R ?
0.0299
